# Tested on: Lung cancer cell line NCI-H358 containing KRas G12C mutation
# assay-info: Assay for cell proliferation (Cell-titer Glo, 5 days)
# Type: cell-based, human
# conditions-used: Homo sapiens, NCI-H358, 120 h, NCI-H358, 5 days, Cell-titer Glo; read-out: IC50 (nM), Inhibition of NCI-H358 Cell Proliferation
experimental-endpoint: IC50 (nM)
Numbers only, in nM.

Answered cases to consult:
# compound, observed-result
data = [
    ("C=CC(=O)N1C[C@H](C)N(c2nc(=O)n(-c3c(C4CC4)ncnc3C3CC3)c3nc(-c4ccccc4F)c(F)cc23)C[C@H]1C", 39.5),
    ("C=CC(=O)N1CCN(c2nc(=O)n(-c3c(C4CC4)nc(OC)nc3C3CC3)c3nc(-c4c(N)cccc4F)c(F)cc23)[C@@H](C)C1", 5.7),
    ("C=CC(=O)N1CCN(c2nc(=O)n(-c3c(C4CC4)nc(C#N)nc3C3CC3)c3nc(-c4ccccc4F)c(F)cc23)[C@@H](C)C1", 168),
    ("C=CC(=O)N1CCN(c2nc(=O)n(-c3c(C(C)C)nc4c(ncn4C)c3C)c3nc(-c4ccccc4F)c(Cl)cc23)[C@@H](C)C1", 17.6),
    ("C=C(F)C(=O)N1CCN(c2nc(=O)n(-c3c(C4CC4)ncnc3C3CC3)c3nc(-c4c(N)cccc4F)c(Cl)cc23)[C@@H](C)C1", 210),
    ("C=CC(=O)N1CCN(c2nc(=O)n(-c3c(C4CC4)nc(C)nc3C3CC3)c3nc(-c4c(O)cccc4F)c(F)cc23)[C@@H](C)C1", 23.3),
    ("C=CC(=O)N1CCN(c2nc(=O)n(-c3c(C(C)C)nc(OCC(C)O)nc3C(C)C)c3nc(-c4ccccc4F)c(Cl)cc23)[C@@H](C)C1 (stereo partly drawn)", 5),
    ("C=CC(=O)N1C[C@H](C)N(c2nc(=O)n(-c3c(C4CC4)nc(N)nc3C3CC3)c3nc(-c4c(O)cccc4F)c(Cl)cc23)C[C@H]1C", 6.3),
    ("C=CC(=O)N1C[C@H](C)N(c2nc(=O)n(-c3c(C(C)C)nc(N4CCNCC4)nc3C(C)C)c3nc(-c4ccccc4F)c(Cl)cc23)C[C@H]1C", 6.9),
    ("C=CC(=O)N1CCN(c2nc(=O)n(-c3c(C(C)C)nc(N(C)C)nc3C(C)C)c3nc(-c4ccccc4F)c(Cl)cc23)[C@@H](C)C1", 107),
]

Proceed to the following item.
Reported IC50 (Lung cancer cell line NCI-H358 containing KRas G12C mutation) for entry C=CC(=O)N1CCN(c2nc(=O)n(-c3c(C4CC4)ncnc3C3CC3)c3nc(-c4c(O)cccc4F)c(F)cc23)[C@@H](C)C1 is 7.5
